B1: TMEM106C (parent)
chain: SEQLVNFTGKAEMGGPFSYVYFFC

Variants of: B1
test: protein stability index of a GFP-peptide fusion (GPS, HEK-293T) (PSI 1-6); higher = more stable;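 also: lentivirally expressed fusions sorted by FACS into six bins by GFP to DsRed ratio, PSI derived from sequencing read proportions per bin multiplied by bin number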
assay_conditions: c terminus: a fixed tail appended
Some variants, each annotated with its measured protein stability index.
Note: the reply should be a number with no unit written.

-- ask Assign protein stability index to the following record: `S18W`
-- reply 1.72

-- ask Assign protein stability index to the following record: `E12V`
-- reply 2.79
